# credit: the domain aggregation screens of Martell et al. (2025)

Test: soluble fraction after stress (log2 fold change); higher = more stays soluble; pooled small domains, quantitative proteomics
Details: stress: 50 degC
Consider the following sequences; for each one, report its soluble fraction (log2).
Answers are plain numbers.

stdin: Which soluble fraction (log2) is reported for this sequence? `HMLQADALADPVGWALRTLGFDLEAGTPERSAIQRSFRQSLIEAHPDHGGADDEAAQRIADITEARRILLA`
stdout: -0.346

Go through the list and state soluble fraction (log2) for each entry.
1. HMQLPIGDVKLSVEHLSSGTALQDISFEVHRGEIFGFLGLVGAGRSETAETIFGLREKTDGKISIDGTVL
2. HMKTEKYIQVISGTVNVRSGPGTSYAEIAKIDASQIYVVTAKEGEWLKISLANGTIGYVAGWLVKEVTG
3. HMDEPSITYGKVKVQTSLNVRQGPGTQYARIGSLGPNVRIQILGQEGQWYKIKYGNLQGYVHSDYVELEK
4. HMQLTPAQHAILAYAIEHTGGKIEWFPDNIKGGARTKVLEGLFNKALITRDSTDWFVAAEGYDALGR
5. HMITNLEPFKDFVRGFSGLHLEGVGQEKLAAALDERIRKTGSANERDYLQLIMEDVAERLKLINILT

stdout:
-0.214
-0.186
0.0784
-0.549
0.0546

Could I get soluble fraction (log2) for every one of these entries?
1. HMNDMPELLSIKEASQWATEYLNKNVTTSNIAYLIQYGRIRKIGNNGSTQVLKDDLVKYYKDQK
2. HMITGSIQPKNGKYYAVLNLYDHTGKRRPKWVSTGYTVKGNKKKAQEVLNELTRRYSAQLPPSK

stdout:
[-0.139, -0.512]

State recorded soluble fraction (log2) for all listed sequences.
1. HMREVEAPRDLLAALGERPGALDAWKALSFTHQREYVEAIEDARKPETRERRIANAVKMVAERS
2. HMVVVVELTENEKAVQDVLTKNEGSLEISDLKTKLELSGKQWDKALKGLAKHGITQVAKVDGVVTVSL
3. HMDDFNLSPREKDVLGHLVKGNSYKMIADELQIGYDTVHSHIKKIYKKLHVNSMSEAVAKALKNKL
4. HMKMNFNEEEQKLLSEANVLVETNKTYTDDEVKGFSNKIVEHIMTFSKTDIPKVKSKFDPILFKI
5. HMDYKYYIVKEPMVVKNLELPVGTRIVYFNTSLFGDSESSRPLKEKNIYQIFFPDDKPLIWGGVPVSLIER

stdout:
0.285
-0.303
0.543
-0.244
-1.97

Report soluble fraction (log2) for every entry below.
1. HMTYAQQIGARIAFLRRLKGLTLAELAERVNKHKSTISKYESGQIIIDIESLKEVADALGVDVAQIVE
2. HMNVGKYILTLAAKEGYSQSDVARRTGISRQMLSYIIAGERKLTLPQALKIESLLSLKTGTLILMQDED
3. HMGQVPPLTRRETEIARLVSRGLSNKEIASTLVISPRTAEGHVEHILDKLGFSSRTQIATWLNEQTRNGK
4. HMAVSGRGSIIGGVATVLDDFADSGKVWLEGEAWQARSSVPLKQDQEVVVRAMDGLVLVVEPVA
5. HMNHLSYEQRLKIKEMLDGGFKKIDIARALGVHNATIYREIERGSVNGIYNPNKSEEQYRDHLSEK
6. HMQSTVSTHQKTLALDTAQSGIPVFPVSSTHKRPLTDHGYKDATADADAVRKIWQQFPSAFV
7. HMNDNFTPDDLNRLARIKDLPQAKKYALELISNKSAKPMKPEKVRWFANQLQKKKSVMDITKMMYDLLLA

stdout:
1. -0.0214
2. -3.41
3. -0.0938
4. -0.198
5. 0.255
6. 0.0922
7. -0.0441
